Assay: Ocular tissue concentrations (aqueous humor, vitreous humor, iris, retina, choroid, cornea) after topical ocular, subcutaneous and intravitreal administration
Format: in vivo, New Zealand White rabbits
Conditions: New Zealand White, rabbit, iris, subcutaneous, 5 mg/kg/dose, TABLE 16: Iris, 0.5 hr; free acid, subcutaneous 5 mg/kg/dose, Group 3; read-out: Iris Average
Property: concentration at 0.5 h (ng/g)
Note: unit ng/g is implicit; provide only the numeric part.

Form: molecule = COC(=O)N[C@@H](Cc1ccccc1)C(=O)N[C@@H](Cc1ccc(NS(=O)(=O)O)cc1)c1csc(-c2cccs2)n1 ; concentration at 0.5 h = 50.3

----------
Assay: Ocular tissue concentrations (aqueous humor, vitreous humor, iris, retina, choroid, cornea) after topical ocular, subcutaneous and intravitreal administration
Format: in vivo, New Zealand White rabbits
Settings: New Zealand White, rabbit, choroid, subcutaneous, 5 mg/kg/dose, TABLE 16: Choroid, 4 hr, OD; free acid, subcutaneous 5 mg/kg/dose, Group 3; read-out: Choroid Conc. (ng/g) OD
Property: concentration at 4 h

Form: compound = COC(=O)N[C@@H](Cc1ccccc1)C(=O)N[C@@H](Cc1ccc(NS(=O)(=O)O)cc1)c1csc(-c2cccs2)n1 ; concentration at 4 h = 53 ng/g
